Provide the recorded Kd for the entries that follow.
Molecular target: T1, recombinant human ENTPD2 extracellular domain (residues 29-462) with C-terminal Avi-His6 tag (human, UniProt Q9Y5L3 29-462, biotinylated on the AviTag in the epitope binning assay)
T1 construct: also called human ENTPD2 ECD; Human ENTPD2-Avi-His6 protein
T1 sequence (Q9Y5L3 29-462): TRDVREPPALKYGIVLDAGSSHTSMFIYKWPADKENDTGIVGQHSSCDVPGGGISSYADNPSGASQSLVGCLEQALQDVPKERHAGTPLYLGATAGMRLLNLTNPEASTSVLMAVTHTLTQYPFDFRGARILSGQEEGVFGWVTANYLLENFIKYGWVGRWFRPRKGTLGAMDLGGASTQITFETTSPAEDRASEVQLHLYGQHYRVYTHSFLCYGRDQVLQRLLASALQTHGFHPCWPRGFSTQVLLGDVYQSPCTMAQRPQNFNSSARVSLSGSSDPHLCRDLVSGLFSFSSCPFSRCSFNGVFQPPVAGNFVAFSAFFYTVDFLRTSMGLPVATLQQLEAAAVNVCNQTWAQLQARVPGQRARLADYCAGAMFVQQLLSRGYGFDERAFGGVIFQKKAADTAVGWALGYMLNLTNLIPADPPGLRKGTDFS
Test: SPR Biacore, mAb captured, ECD analyte, 25C
Response body: numeric value in nM, unit text excluded.

Input line: Respond only with Kd recorded for ANTI-HUMAN ENTPD2 MAB10 (antibody, human IgG1, lambda, V domains shown, also called Anti-ENTPD2 mAb10) VH: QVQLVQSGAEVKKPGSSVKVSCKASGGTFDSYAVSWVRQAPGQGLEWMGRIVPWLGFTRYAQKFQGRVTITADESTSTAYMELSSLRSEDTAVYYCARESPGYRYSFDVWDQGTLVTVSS VL: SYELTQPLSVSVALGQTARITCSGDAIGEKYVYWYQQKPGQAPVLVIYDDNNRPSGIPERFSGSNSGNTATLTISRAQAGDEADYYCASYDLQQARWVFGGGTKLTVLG
Output line: 0.8

Input line: Recall and state the measured Kd for ANTI-HUMAN ENTPD2 MAB3 (antibody, human IgG1, kappa, V domains shown, humanized from mAb17; human IgG1, kappa; also called Anti-ENTPD2 mAb3) VH: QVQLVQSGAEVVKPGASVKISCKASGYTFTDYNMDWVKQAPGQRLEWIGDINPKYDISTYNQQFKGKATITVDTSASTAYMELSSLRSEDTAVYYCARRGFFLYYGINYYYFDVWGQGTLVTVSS VL: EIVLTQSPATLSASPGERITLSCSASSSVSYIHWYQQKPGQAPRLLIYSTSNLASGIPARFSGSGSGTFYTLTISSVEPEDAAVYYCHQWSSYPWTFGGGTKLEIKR .
Output line: 1.3

Input line: Return Kd (reported value) for this binder: ANTI-HUMAN ENTPD2 MAB4 (antibody, human IgG1, kappa, V domains shown, humanized and optimized from mAb16; human IgG1, kappa; also called Anti-ENTPD2 mAb4) VH: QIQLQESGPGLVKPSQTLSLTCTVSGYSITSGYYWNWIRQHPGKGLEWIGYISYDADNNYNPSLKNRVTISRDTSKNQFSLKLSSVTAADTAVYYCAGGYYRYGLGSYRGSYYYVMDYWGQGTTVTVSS VL: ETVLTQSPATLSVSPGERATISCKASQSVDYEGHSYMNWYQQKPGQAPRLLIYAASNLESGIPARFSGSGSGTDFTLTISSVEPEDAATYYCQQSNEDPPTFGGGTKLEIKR
Output line: 0.7

Every entry's value here was drawn from patent US20220348651A1.
